- assayOverview: chemical genetic growth profiling, strain panel (AID 1159580);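 note: tested at 20 µM; growth read once vehicle control cultures reached saturation at 30 °C; 1 = growth at the plate median or of vehicle wells; lower values mean less growth of the strain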
- measurementSetup: S. cerevisiae deletion strains, growth OD, locus YOR184W, strain ser1, active compounds read low
Hit rate of the full screen: of about 5,500 compounds, about 2,000 (36%) were called active. Roughly 18% stayed inconclusive and do not appear here. The list shows a part of the results.
normalized growth vs 1: less than gives satisfied; not less than gives not satisfied.

[
  {
    "compound": "Nc1ncnc2c1ncn2[C@@H]1O[C@H](CO)[C@@H](O)[C@@H]1O",
    "assignedLabel": "not satisfied"
  },
  {
    "compound": "CC(=O)OC1CCC2C3CCc4cc(O)ccc4C3CCC12C (centres undefined)",
    "assignedLabel": "satisfied"
  },
  {
    "compound": "COc1cc(OC)c2c(c1Cl)OC1(C2=O)C(O)=CC(=O)CC1C (centres undefined)",
    "assignedLabel": "not satisfied"
  }
]

====

Each entry below carries its reported normalized growth.
- assayOverview: chemical genetic growth profiling, strain panel (AID 1159580);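 note: tested at 20 µM; growth read once vehicle control cultures reached saturation at 30 °C; 1 = growth at the plate median or of vehicle wells; lower values mean less growth of the strain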
- measurementSetup: S. cerevisiae deletion strains, growth OD, locus YDL132W, strain cdc53, active compounds read low
Screen size: about 5,500 compounds; about 2,000 (36%) were called active. Roughly 18% stayed inconclusive and do not appear here. The list shows a part of the results.

[
  {
    "molecule": "Cc1nc(C(F)(F)F)ccc1-c1nnc(SC(=O)c2ccc(Cl)cc2)o1",
    "normalized growth": "0.877 (active)"
  },
  {
    "molecule": "CC(/C=C/c1ccccc1)=N/OC(=O)c1ccccc1Cl",
    "normalized growth": "0.978 (inactive)"
  },
  {
    "molecule": "N/C(=N/OC(=O)c1ccccc1Cl)c1ccc2nonc2c1",
    "normalized growth": "0.958 (inactive)"
  },
  {
    "molecule": "C(=NC(N=Cc1ccccc1)c1ccccc1)c1ccccc1 (stereo not drawn)",
    "normalized growth": "0.992 (inactive)"
  },
  {
    "molecule": "N#CC(C#N)=NNc1ccc(-n2ccc(C(F)(F)F)n2)cc1",
    "normalized growth": "0.76 (active)"
  },
  {
    "molecule": "CN(NC(=S)Nc1cc(Cl)ccc1Cl)c1ccc(C(F)(F)F)cc1[N+](=O)[O-]",
    "normalized growth": "0.97 (inactive)"
  },
  {
    "molecule": "COc1ccc(/C(C#N)=C2C=C/C(=N/O)C(Cl)=C\\2)cc1",
    "normalized growth": "0.948 (inactive)"
  },
  {
    "molecule": "Fc1ccc(Nc2nc(-c3ccc(F)c(F)c3)cs2)c(F)c1",
    "normalized growth": "0.0939 (active)"
  },
  {
    "molecule": "CN(C)c1nc(=S)ss1",
    "normalized growth": "0.687 (active)"
  },
  {
    "molecule": "O=S(=O)(Nc1ccc(-n2nc(C(F)(F)F)cc2-c2cccs2)cc1)c1ccc(F)cc1",
    "normalized growth": "0.989 (inactive)"
  },
  {
    "molecule": "CC(NC(=S)Nc1ccc(Oc2ccc(Cl)cc2)cc1)c1ccccc1 (stereo not drawn)",
    "normalized growth": "0.964 (inactive)"
  },
  {
    "molecule": "Cc1nc([N+](=O)[O-])cn1CC(=O)c1ccc(Cl)cc1",
    "normalized growth": "0.976 (inactive)"
  },
  {
    "molecule": "FC(F)(F)c1ccc(NC(=S)Nc2ccc(C(F)(F)F)cc2Cl)c(Cl)c1",
    "normalized growth": "0.949 (inactive)"
  },
  {
    "molecule": "CC1CCc2c(sc3ncnc(Sc4ccccc4)c23)C1 (stereo not drawn)",
    "normalized growth": "0.977 (inactive)"
  },
  {
    "molecule": "N#CC(C#N)=NNc1ccc(C(F)(F)F)cc1",
    "normalized growth": "0.126 (active)"
  },
  {
    "molecule": "Cc1nn(Cc2cccc(C(=O)O/N=C(/N)c3ccc(Cl)cc3)c2)c(C)c1Br",
    "normalized growth": "0.979 (inactive)"
  },
  {
    "molecule": "N#C/C(=N/Nc1ccc(Cl)cc1)C(N)=S",
    "normalized growth": "0.43 (active)"
  },
  {
    "molecule": "FC(F)(F)c1ccc(C2Sc3ccccc3N=C3c4ccccc4CC32)cc1 (stereo not drawn)",
    "normalized growth": "1.02 (inactive)"
  },
  {
    "molecule": "CCOC(=O)C(O)(c1ccc(NC(=O)Nc2ccc(Cl)cc2)cc1)C(F)(F)F (stereo not drawn)",
    "normalized growth": "0.993 (inactive)"
  },
  {
    "molecule": "Cc1oc(-c2ccc(Cl)cc2)cc1C(=O)N1CCN(c2ccc(C(F)(F)F)cn2)CC1",
    "normalized growth": "0.982 (inactive)"
  },
  {
    "molecule": "O=C(Oc1ccc(C2SCCS2)cc1)c1cccs1",
    "normalized growth": "0.995 (inactive)"
  },
  {
    "molecule": "COc1cc(OC)cc(/C(N)=N\\O)c1",
    "normalized growth": "0.997 (inactive)"
  },
  {
    "molecule": "CCOC(=O)C1C(c2ccc(Br)cc2)C(C(=O)OCC)C(O)(C(F)(F)F)NC1(O)C(F)(F)F (stereo not drawn)",
    "normalized growth": "0.996 (inactive)"
  }
]

====

The following molecules are shown together with reported normalized growth values.
- assayOverview: chemical genetic growth profiling, strain panel (AID 1159580);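 note: tested at 20 µM; growth read once vehicle control cultures reached saturation at 30 °C; 1 = growth at the plate median or of vehicle wells; lower values mean less growth of the strain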
- measurementSetup: S. cerevisiae deletion strains, growth OD, locus YNL224C, strain SQS1, active compounds read low
Among all 5,500 compounds or so, about 2,000 (36%) were called active. Another 18% or so got no clear call; they are omitted. The list shows a part of the results.

[
  {
    "molecule": "COc1ccc2[nH]c(I)c(CCNC(C)=O)c2c1",
    "normalized growth": 1.02
  },
  {
    "molecule": "COC(=O)c1cc2c(cn1)[nH]c1ccccc12",
    "normalized growth": 0.981
  },
  {
    "molecule": "O=C(O)CC[C@@H](C(=O)O)N1C(=O)c2ccccc2C1=O",
    "normalized growth": 0.991
  },
  {
    "molecule": "C/C=C(/C)C(=O)O[C@H]1C(C)=C2[C@H]([C@@H]1OC(=O)CCCCCCC)[C@@](C)(OC(C)=O)C[C@H](OC(=O)CCC)[C@@]1(O)[C@H]2OC(=O)[C@@]1(C)O",
    "normalized growth": 0.988
  },
  {
    "molecule": "COc1ccc(-n2nc(C(F)(F)F)cc2-c2ccc(Cl)cc2)cc1",
    "normalized growth": 0.998
  },
  {
    "molecule": "COc1ccc2[nH]cc(CCNC(C)=O)c2c1",
    "normalized growth": 1
  },
  {
    "molecule": "CC(C(=O)O)c1ccc(CC2CCCC2=O)cc1 (stereo not given)",
    "normalized growth": 0.979
  },
  {
    "molecule": "CC(=O)[C@H]1CC[C@H]2[C@@H]3CC[C@H]4C[C@H](O)CC[C@]4(C)[C@H]3C(=O)C[C@]12C",
    "normalized growth": 1.01
  },
  {
    "molecule": "NC1(C(=O)O)CCc2cc(C(=O)O)ccc21 (stereo not given)",
    "normalized growth": 1.01
  },
  {
    "molecule": "C[N+](C)(C)CC#CCN1CCCC1=O",
    "normalized growth": 0.996
  }
]

====

Entries and their measured normalized growth follow.
- assayOverview: chemical genetic growth profiling, strain panel (AID 1159580);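 note: tested at 20 µM; growth read once vehicle control cultures reached saturation at 30 °C; 1 = growth at the plate median or of vehicle wells; lower values mean less growth of the strain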
- measurementSetup: S. cerevisiae deletion strains, growth OD, locus YJR066W, strain TOR1, active compounds read low
About 2,000 (36%) of roughly 5,500 compounds were called active. Inconclusive results (about 18%) are left out. This is one part of the list.
parameter: normalized growth

[
  {
    "molecule": "c1ccc2c(c1)[nH]c1cnccc12",
    "parameter": "normalized growth",
    "recordedNumber": 0.956
  },
  {
    "molecule": "CC(=O)c1ccc2c(c1)N(CCCN(C)C)c1ccccc1S2",
    "parameter": "normalized growth",
    "recordedNumber": 0.923
  },
  {
    "molecule": "CN1CCN(CCCN2c3ccccc3Sc3ccc(Cl)cc32)CC1",
    "parameter": "normalized growth",
    "recordedNumber": 0.968
  },
  {
    "molecule": "COc1ccc2c(c1)[nH]c1c(C)nccc12",
    "parameter": "normalized growth",
    "recordedNumber": 0.972
  },
  {
    "molecule": "CN1Cc2c(N)cccc2C(c2ccccc2)C1 (configuration not stated)",
    "parameter": "normalized growth",
    "recordedNumber": 0.933
  },
  {
    "molecule": "CCN(CC)CCNC(=O)COc1ccc(OC)cc1",
    "parameter": "normalized growth",
    "recordedNumber": 0.939
  },
  {
    "molecule": "O=c1[nH]c2ccccc2n1CCCN1CCC(n2c(=O)[nH]c3cc(Cl)ccc32)CC1",
    "parameter": "normalized growth",
    "recordedNumber": 0.932
  },
  {
    "molecule": "O=c1n(CCCN2CCN(c3cccc(Cl)c3)CC2)nc2ccccn12",
    "parameter": "normalized growth",
    "recordedNumber": 0.943
  },
  {
    "molecule": "NNC(=O)COc1ccc(C2SCCS2)cc1",
    "parameter": "normalized growth",
    "recordedNumber": 0.159
  },
  {
    "molecule": "CC1(C)S[C@@H]2[C@H](NC(=O)COc3ccccc3)C(=O)N2[C@H]1C(=O)O",
    "parameter": "normalized growth",
    "recordedNumber": 0.92
  },
  {
    "molecule": "N#Cc1ccc2c(c1)N(CCCN1CCC(O)CC1)c1ccccc1S2",
    "parameter": "normalized growth",
    "recordedNumber": 0.955
  },
  {
    "molecule": "FC(F)(F)COCC(F)(F)F",
    "parameter": "normalized growth",
    "recordedNumber": 0.938
  }
]
